- tested_system: T1, full-length human GIPR with an N-terminal FLAG tag (human, UniProt P48546 22-466)
- T1 sequence (looked up): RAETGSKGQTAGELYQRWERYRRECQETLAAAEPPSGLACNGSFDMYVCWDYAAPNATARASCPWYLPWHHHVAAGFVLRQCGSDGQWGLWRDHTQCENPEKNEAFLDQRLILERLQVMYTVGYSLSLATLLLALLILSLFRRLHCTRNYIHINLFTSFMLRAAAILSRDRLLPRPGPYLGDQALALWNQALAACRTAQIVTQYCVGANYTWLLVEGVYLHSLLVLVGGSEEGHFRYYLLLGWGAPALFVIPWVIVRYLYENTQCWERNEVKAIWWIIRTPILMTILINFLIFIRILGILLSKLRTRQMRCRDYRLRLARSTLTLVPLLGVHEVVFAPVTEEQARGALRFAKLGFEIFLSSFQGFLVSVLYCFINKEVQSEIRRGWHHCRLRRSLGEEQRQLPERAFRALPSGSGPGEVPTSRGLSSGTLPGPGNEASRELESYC
- experimental_protocol: cell-based or functional assay
Starred links: 1 amine or outer side, 2 acyl side, 3 side chain; linkers in the order of their positions; H or OH if unused. Non-standard residues stand in square brackets, D forms with d. Groups on a side chain read outwards from the residue. No end group written: not given here. *: point of attachment. C15 diacid = O=C(O)CCCCCCCCCCCCCC(=O)*; γGlu = O=C(O)[C@H](CCC(=O)[*:2])N[*:1]; NMeY = CN[C@@H](Cc1ccc(O)cc1)C(=O)O; AEEA = NCCOCCOCC(=O)O; Aib = CC(C)(N)C(=O)O
readout_label: Human GIPR cAMP, HEK293T EC50 (pM)
# unit: pM | format: bare number

[NMeY][Aib]EGTFISDYSIALDRK([AEEA-AEEA-γGlu-C15 diacid])AQ[Aib]DFVNWLLAQRPSSGAPPPS-NH2 [Compound 104] : 0.4

Entry YXEGTFISDYSIALDRXHQXDFVNWLLAQSPSSGAPPPS (not fully specified; Me-Tyr1; Aib 2,20; Km17 = Lys(gE-C15DA); C-term NH2) [Compound 69] — recorded Human GIPR cAMP, HEK293T EC50 = 0.4

Entry [NMeY][Aib]EGTFISDYSIALDRKAQ[Aib]NFVNWLLAQSPSSGAPPPS-OH (not fully specified (residue 17)) [Compound 54] — recorded Human GIPR cAMP, HEK293T EC50 = 0.1
